- target.of.assay: MMP-3 (Stromelysin-1) (Homo sapiens, UniProt P08254)
- Sequence (P08254 100-477, species assumed): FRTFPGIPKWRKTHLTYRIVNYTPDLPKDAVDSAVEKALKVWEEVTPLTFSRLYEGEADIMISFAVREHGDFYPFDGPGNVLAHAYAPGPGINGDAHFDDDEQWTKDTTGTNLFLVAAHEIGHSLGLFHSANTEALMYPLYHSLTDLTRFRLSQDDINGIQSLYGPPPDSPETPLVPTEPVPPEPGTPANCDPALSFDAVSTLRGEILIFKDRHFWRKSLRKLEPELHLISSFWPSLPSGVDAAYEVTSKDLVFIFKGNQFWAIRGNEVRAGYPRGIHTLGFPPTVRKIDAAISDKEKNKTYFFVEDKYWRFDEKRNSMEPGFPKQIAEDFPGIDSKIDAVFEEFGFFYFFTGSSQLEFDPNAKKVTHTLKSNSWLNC
assay.readout: IC50

// known answers, use as guide
input.smiles: CN1CCN(CC(=O)N2CCN(S(=O)(=O)c3cc(F)c(Oc4ccc(Cl)cc4)c(F)c3)[C@@H](C(=O)NO)C2)CC1
assay.readout: IC50
result: 1 to 20 µM
--
input.smiles: CCOC(=O)N1CCN(S(=O)(=O)c2cc(F)c(Oc3ccc(F)cc3)c(F)c2)[C@@H](C(=O)NO)C1
assay.readout: IC50
result: 0.05 to 1 µM
--
input.smiles: O=C(NO)[C@H]1CN(C(=O)Cc2cccnc2)CCN1S(=O)(=O)c1cc(F)c(Oc2ccc(Cl)cc2)c(F)c1
assay.readout: IC50
result: 0.05 to 1 µM
--
input.smiles: CC(C)(C)OC(=O)N1CCN(S(=O)(=O)c2cc(F)c(Oc3ccc(F)cc3)c(F)c2)[C@@H](C(=O)NO)C1
assay.readout: IC50
result: 1 to 20 µM
--
input.smiles: O=C(NO)[C@H]1CNCCN1S(=O)(=O)c1cc(F)c(Oc2ccc(F)cc2)c(F)c1
assay.readout: IC50
result: 1 to 20 µM
--
input.smiles: O=C(NO)[C@H]1CN(C(=O)OCc2ccccc2)CCN1S(=O)(=O)c1cc(F)c(Oc2ccc(Cl)cc2)c(F)c1
assay.readout: IC50
result: 0.05 to 1 µM
--
input.smiles: COCCOC(=O)N1CCN(S(=O)(=O)c2ccc(-c3cccc(F)c3)nc2)[C@@H](C(=O)NO)C1
assay.readout: IC50
result: < 0.05 µM
--
input.smiles: O=C(NO)[C@H]1CN(S(=O)(=O)CCN2CCOCC2)CCN1S(=O)(=O)c1cc(F)c(Oc2ccc(Cl)cc2)c(F)c1
assay.readout: IC50
result: 1 to 20 µM
--
input.smiles: CN1CCN(C(=O)N2CCN(S(=O)(=O)c3cc(F)c(Oc4ccc(Cl)cc4)c(F)c3)[C@@H](C(=O)NO)C2)CC1
assay.readout: IC50
result: 1 to 20 µM
--
input.smiles: CN(C)S(=O)(=O)N1CCN(S(=O)(=O)c2cc(F)c(Oc3ccc(Cl)cc3)c(F)c2)[C@@H](C(=O)NO)C1
assay.readout: IC50
result: 0.05 to 1 µM

Working through the 4 molecules below one at a time, give IC50 for each.
1. COCCOC(=O)N1CCN(S(=O)(=O)c2ccc(Oc3ccc(Cl)cc3)c(F)c2)[C@@H](C(=O)NO)C1
2. CNC(=O)CN1CCN(S(=O)(=O)c2cc(F)c(Oc3ccc(Cl)cc3)c(F)c2)[C@@H](C(=O)NO)C1
3. COCCOC(=O)N1CCN(S(=O)(=O)c2ccc(Oc3ccc(F)cc3)cc2)[C@@H](C(=O)NO)C1
4. CN(C)c1cccc2c(S(=O)(=O)N3CCN(S(=O)(=O)c4cc(F)c(Oc5ccc(Cl)cc5)c(F)c4)[C@@H](C(=O)NO)C3)cccc12

["< 0.05 µM", "0.05 to 1 µM", "< 0.05 µM", "1 to 20 µM"]

---

The reader will find pIC50 measurements below, all made with MMP-3 (Stromelysin-1) (Homo sapiens, UniProt P08254).
pIC50: −log10 of the molar value.

These recorded examples may help you get a feel for the data.
compound: COCCOC(=O)N1CCN(S(=O)(=O)c2ccc(Oc3ccc(F)cc3)nc2)[C@@H](C(=O)NO)C1 [Entry 65]
pIC50: > 7.30

compound: O=C(NO)[C@H]1CN(CC(=O)N2CCCC2)CCN1S(=O)(=O)c1cc(F)c(Oc2ccc(Cl)cc2)c(F)c1 [Entry 21]
pIC50: 4.70 to 6.00

compound: CS(=O)(=O)N1CCN(S(=O)(=O)c2cc(F)c(Oc3ccc(Cl)cc3)c(F)c2)[C@@H](C(=O)NO)C1 [Entry 28]
pIC50: 6.00 to 7.30

Dear colleague, could you send me pIC50 for each of the items below? Thanks.
1. CN1CCC(OC(=O)N2CCN(S(=O)(=O)c3cc(F)c(Oc4ccc(Cl)cc4)c(F)c3)[C@@H](C(=O)NO)C2)CC1 [Entry 22]
2. O=C(NO)[C@H]1CN(S(=O)(=O)NC(=O)N2CCOCC2)CCN1S(=O)(=O)c1cc(F)c(Oc2ccc(Cl)cc2)c(F)c1 [Entry 38]
3. COCCOC(=O)N1CCN(S(=O)(=O)c2ccc(Oc3ccc4c(c3)CCCC4)nc2)[C@@H](C(=O)NO)C1 [Entry 64]
4. O=C(NO)[C@H]1CN(C(=O)N2CCOCC2)CCN1S(=O)(=O)c1ccc(Oc2ccc(F)cc2)cc1 [Entry 2]
5. O=C(NO)[C@H]1CN(S(=O)(=O)Cc2ccncc2)CCN1S(=O)(=O)c1cc(F)c(Oc2ccc(Cl)cc2)c(F)c1 [Entry 34]
6. O=C(NO)[C@H]1CN(S(=O)(=O)Cc2cc(Cl)cc(Cl)c2)CCN1S(=O)(=O)c1cc(F)c(Oc2ccc(Cl)cc2)c(F)c1 [Entry 61]

1: 6.00 to 7.30; 2: > 7.30; 3: > 7.30; 4: > 7.30; 5: 6.00 to 7.30; 6: < 4.70

Hi! Can you tell me pIC50 for each of these compounds?
1. O=C(NO)[C@H]1CN(C(=O)OCCN2CCCCC2)CCN1S(=O)(=O)c1cc(F)c(Oc2ccc(Cl)cc2)c(F)c1 [Entry 27]
2. O=C(NO)[C@H]1CN(C(=O)N2CCOCC2)CCN1S(=O)(=O)c1ccc(Oc2ccc(Cl)cc2)c(F)c1 [Entry 6]
3. O=C(NO)[C@H]1CN(C(=O)c2cccnc2)CCN1S(=O)(=O)c1cc(F)c(Oc2ccc(Cl)cc2)c(F)c1 [Entry 59]

6.00 to 7.30
> 7.30
6.00 to 7.30
